biological target: fusion protein PRR
Sequence (chain, as listed by the source): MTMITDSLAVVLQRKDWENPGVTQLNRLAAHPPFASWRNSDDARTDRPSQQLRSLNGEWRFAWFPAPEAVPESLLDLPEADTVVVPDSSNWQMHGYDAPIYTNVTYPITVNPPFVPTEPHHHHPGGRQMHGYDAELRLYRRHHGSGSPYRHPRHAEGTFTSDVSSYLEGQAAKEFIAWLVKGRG
Observable: relative cleavage efficiency

Query OmpT protease variant OmpT D97L (protein) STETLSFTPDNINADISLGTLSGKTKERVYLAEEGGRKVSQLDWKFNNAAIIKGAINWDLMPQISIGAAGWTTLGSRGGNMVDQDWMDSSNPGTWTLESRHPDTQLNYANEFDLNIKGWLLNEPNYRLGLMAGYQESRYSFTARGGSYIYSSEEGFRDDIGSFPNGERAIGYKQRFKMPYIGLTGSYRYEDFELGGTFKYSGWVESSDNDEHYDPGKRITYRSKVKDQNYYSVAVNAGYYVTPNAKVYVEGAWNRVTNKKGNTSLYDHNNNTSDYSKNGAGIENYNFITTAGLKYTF yields relative cleavage efficiency of < 3%

Just for reference, patent US20070077617 is where these values come from.
